# experimental_system: Luciferin 4-monooxygenase (Photinus pyralis) (UniProt P08659)
# assay_name: qHTS of Nrf2 Activators: Hit Validation in Secondary FLuc Assay; further: nearly all actives have a fitted effect of over 65% in size
# stated_conditions: firefly luciferase inhibition counter-screen, luminescence; series mostly up to 57.5 µM
Out of some 1,100 compounds screened, about 390 (35%) were called active. Another 30% or so got no clear call; they are omitted. The call rests on the fitted dose curve; in most records, active means well fitted inhibition curve with a large enough effect; inconclusive means small, poorly fitted or top-dose-only effect; inactive means flat fitted curve, though single readings scatter. The list shows a part of the results.
// classify into class 1 (active), class 0 (inactive)

// below: answered compounds
{"columns": ["compound", "discrete_label"],
 "data": [
  ["O=C(CSc1nnc(-c2cccnc2)o1)c1cc2ccccc2oc1=O", "class 0"],
  ["Brc1cc(Cc2nnc(-c3ccccc3)o2)c(Br)s1", "class 0"],
  ["Cc1nc(NC(=O)c2ccc(Br)o2)ccc1Br", "class 1"],
  ["CC(C)Cc1cc(-c2ccco2)c(C#N)c(N)n1", "class 0"]
]}

**Q:** Check the results log: what was the call for "O=C1C(=Cc2ccco2)CCCC1=Cc1ccco1" ?
**A:** class 1

**Q:** What did this assay record as the result for "S=c1[nH]nc(-c2ccc(Cl)cc2)n1/N=C/C=C/c1ccco1" ?
**A:** class 1

**Q:** What did the test return for "CNc1nc(N)c([N+](=O)[O-])c(Nc2cccc(Cl)c2)n1" ?
**A:** class 0

* * *

# experimental_system: Luciferin 4-monooxygenase (Photinus pyralis)
# assay_name: qHTS of Nrf2 Activators: Hit Validation in Secondary FLuc Assay; further: nearly all actives have a fitted effect of over 65% in size; further: potency means the concentration at half of the fitted maximal effect
# stated_conditions: firefly luciferase inhibition counter-screen, luminescence; series mostly up to 57.5 µM
Out of some 1,100 compounds screened, about 390 (35%) were called active. Inconclusive results (about 30%) are left out. The list shows a part of the results.
observable: Potency

{"columns": ["molecule", "observable", "result"],
 "data": [
  ["C[n+]1c2n(c3ccccc31)N=C(c1ccccc1)CS2", "Potency", "inactive"],
  ["c1coc(-c2cnc3ccccc3n2)c1", "Potency", "2.69 µM (active)"],
  ["COc1cc(OC)cc(C(=O)O/N=C(\\N)c2cccc(C)c2)c1", "Potency", "9.53 µM (active)"],
  ["CCn1c(NC(=O)c2ccccc2)nc2ccccc21", "Potency", "9.53 µM (active)"]
]}

Field Potency (system: Luciferin 4-monooxygenase (Photinus pyralis)) for entry "c1ccc(Cn2ncc3c(NCc4ccco4)ncnc32)cc1" = inactive

The reported Potency value, Luciferin 4-monooxygenase (Photinus pyralis), for "CC(=O)Nc1ccc2nc(NC(=O)c3ccco3)sc2c1" reads 2.39 µM (active)

The molecule "Cc1cc(Cl)cc2sc(NC(=O)c3ccco3)nc12" , tested on Luciferin 4-monooxygenase (Photinus pyralis), showed Potency of 1.69 µM (active)

Item "O=C(/C=C/c1ccc2c(c1)OCO2)c1ccc(O)cc1O" was tested on Luciferin 4-monooxygenase (Photinus pyralis); the reported Potency is 1.9 µM (active)

Fill in: Luciferin 4-monooxygenase (Photinus pyralis) Potency for "COc1cc(OCc2ccccc2)c(C(=O)/C=C/c2ccc3c(c2)OCO3)c(OC)c1OC" = inactive

* * *

# experimental_system: Luciferin 4-monooxygenase (Photinus pyralis) (UniProt P08659)
# assay_name: qHTS of Nrf2 Activators: Hit Validation in Secondary FLuc Assay; further: nearly all actives have a fitted effect of over 65% in size; further: potency means the concentration at half of the fitted maximal effect
# stated_conditions: firefly luciferase inhibition counter-screen, luminescence; series mostly up to 57.5 µM
# Excerpt: Many diseases have some form of oxidative stress injury and ties to inflammation, causing a host of problems for the patient. The antioxidant response element (ARE) plays an important role in alleviating the harmful effects of oxidative stress. The antioxidant response element (ARE) is a transcriptional regulatory element involved in the activation of genes coding for a number of antioxidant proteins and detoxifying enzymes. […]
Among all 1,100 compounds or so, about 390 (35%) were called active. Roughly 30% stayed inconclusive and do not appear here. The list shows a part of the results.
observable: Potency

See these solved cases before continuing.
{"columns": ["smiles_structure", "Potency"],
 "data": [
  ["O=C(CN1CCS(=O)(=O)CC1)N/N=C/c1cccc(C(F)(F)F)c1", "inactive"],
  ["O=C(Nc1cnc2ccccc2c1)c1ccco1", "1.35 µM (active)"],
  ["Cc1cc(NC(=S)NC(=O)c2ccco2)c2ccccc2n1", "inactive"],
  ["O=C(NC(=S)Nc1cnc2ccccc2c1)c1ccccc1", "3.38 µM (active)"],
  ["CNc1ccc(Br)cc(C(=O)/C=C/c2cccc(Cl)c2Cl)c1=O", "4.78 µM (active)"]
]}

Okay, next one:
compound "COC1=C(C)C(O)=C(C(=O)/C=C/c2ccccc2)C(=O)C1(C)C" , Potency observed: inactive
